This listing pairs molecules with measured melting point.

Some solved cases for reference:
MOLECULE: Cc1cc(C)c(-c2nc3cc(C(=O)c4ccccc4)ccc3[nH]2)[nH]1
RECORDED_ENDPOINT: melting point
OBSERVED_MEASUREMENT: 225 to 229 °C
--
MOLECULE: Cc1[nH]c(C#N)c(C)c1-c1nc2cc(C(=O)c3ccccc3)ccc2[nH]1
RECORDED_ENDPOINT: melting point
OBSERVED_MEASUREMENT: 159 to 163 °C

INPUT: Report melting point for `CON(C)C(=O)c1[nH]c(C)c(-c2nc3cc(C(=O)c4ccccc4)ccc3[nH]2)c1C` please.
OUTPUT: 127 to 132 °C

INPUT: Same for `Cc1[nH]c(C(=O)N2CCC(C(=O)O)CC2)c(C)c1-c1nc2cc(C(=O)c3ccccc3)ccc2[nH]1`
OUTPUT: 267 to 271 °C

INPUT: `Cc1c[nH]c(C)c1-c1nc2cc(C(=O)c3ccccc3)ccc2[nH]1` ?
OUTPUT: 207 to 214 °C

INPUT: Consider next the molecule `Cc1[nH]c(C(=O)N2CCCC2)c(C)c1-c1nc2cc(Oc3ccccc3)ccc2[nH]1` in the same way.
OUTPUT: 251 to 254 °C

INPUT: Follow-up entry: `Cc1[nH]c(C(=O)NCO)c(C)c1-c1nc2cc(C(=O)c3ccccc3)ccc2[nH]1`
OUTPUT: 196 to 210 °C

INPUT: Same thing, different molecule: O=C(c1ccccc1)c1ccc2[nH]c(-c3ccc(P(=O)(O)O)o3)nc2c1 (hydrate or solvate) [Comparative Example 3, dihydrate]
OUTPUT: 224 to 229 °C

INPUT: Param item: `O=C(c1ccccc1)c1ccc2[nH]c(-c3ccc(C(=O)O)o3)nc2c1`
OUTPUT: 170 °C

INPUT: Same for `Cc1[nH]c(C(=O)NCCC(=O)O)c(C)c1-c1nc2cc(C(=O)c3ccccc3)ccc2[nH]1`
OUTPUT: 256 to 258 °C

INPUT: Proceed to `Cc1[nH]c(/C=C/C#N)c(C)c1-c1nc2cc(C(=O)c3ccccc3)ccc2[nH]1`
OUTPUT: 201 to 203 °C

INPUT: Another molecule: `O=C(c1ccccc1)c1ccc2[nH]c(-c3c[nH]c(C(=O)N4CCCC4)c3)nc2c1`
OUTPUT: 160 to 162 °C

INPUT: `Cc1[nH]c(C(=O)O)c(C)c1-c1nc2cc(Oc3ccccc3)ccc2[nH]1` ?
OUTPUT: 167 to 172 °C (dec.)

* * *

Molecular target: human hematopoietic synthase (Homo sapiens, UniProt O60760)
Sequence (O60760 whole entry): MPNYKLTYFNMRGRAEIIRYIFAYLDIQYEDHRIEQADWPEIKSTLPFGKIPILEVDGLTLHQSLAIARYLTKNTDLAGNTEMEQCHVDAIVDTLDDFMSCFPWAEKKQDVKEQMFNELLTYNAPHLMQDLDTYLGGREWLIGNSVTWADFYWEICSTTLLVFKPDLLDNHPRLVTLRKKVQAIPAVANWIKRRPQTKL
RECORDED_ENDPOINT: IC50 (nM)

MOLECULE: Cc1[nH]c(C#N)c(C)c1-c1nc2cc(C(=O)c3ccccc3)ccc2[nH]1
OBSERVED_MEASUREMENT: 540

1. O=C(c1ccccc1)c1ccc2[nH]c(-c3ccc(C(=O)O)o3)nc2c1
2. Cc1[nH]c(C(=O)N(C)O)c(C)c1-c1nc2cc(C(=O)c3ccccc3)ccc2[nH]1
3. Cc1[nH]c(C(=O)N2CCCC2)c(C)c1-c1nc2cc(Oc3ccccc3)ccc2[nH]1
INPUT: // ranking: key=IC50, reverse=True Reply format: the labels, ordered as requested.
OUTPUT: 1, 3, 2
(1: 4130 nM, 3: 614 nM, 2: 124 nM)

A. Cc1[nH]c(C(=O)NCCc2ccccn2)c(C)c1-c1nc2cc(C(=O)c3ccccc3)ccc2[nH]1
B. Cc1[nH]c(C(=O)Nc2ccc3c(c2)OCCO3)c(C)c1-c1nc2cc(C(=O)c3ccccc3)ccc2[nH]1
C. CCOC(=O)c1c(C)[nH]c(-c2nc3cc(C(=O)c4ccccc4)ccc3[nH]2)c1C
INPUT: Arrange the 3 entries by IC50 so the values rise. Answer by naming the labels in the order asked.
OUTPUT: A, B, C

I. c1ccc(C(OC2CCN(CCCc3nnn[nH]3)CC2)c2ccccc2)cc1 [HQL-79, reference compound]
II. Cc1[nH]c(C(=O)NCCC(=O)O)c(C)c1-c1nc2cc(C(=O)c3ccccc3)ccc2[nH]1
INPUT: From the recorded data, which exceeds the other in IC50: I or II ? Label of pick, please.
OUTPUT: I
(I: 24400 nM, II: 304 nM)
